# Tgt: U2B" (Homo sapiens, UniProt P08579 1-225)
# Sequence (P08579 whole entry): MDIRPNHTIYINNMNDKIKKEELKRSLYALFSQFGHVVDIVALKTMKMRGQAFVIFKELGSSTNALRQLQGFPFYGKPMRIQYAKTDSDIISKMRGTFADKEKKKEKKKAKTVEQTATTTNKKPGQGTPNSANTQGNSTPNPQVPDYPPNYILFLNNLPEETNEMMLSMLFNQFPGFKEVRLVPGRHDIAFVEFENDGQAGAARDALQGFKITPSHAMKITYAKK
# Assay: filter binding
Answer each item with its documented pKd.
// pKd here means minus log10 of the molar concentration (mol/L)

Record request: pKd value, item GGGCUGCCAUUGCACCUCGGCGGUCC (structured_RNA) [hSLII]
8.68

Record request: pKd value, item GGGCCCGGUAUUGCAGUACCUCCGGGUCC (structured_RNA) [hSLIV 9 bp stem]
9.00

Record request: pKd value, item GGGCCCGGUAUUGCAGUACCGCCGGGUCC (structured_RNA) [dSLIV]
8.70

Record request: pKd value, item GGCCGUAUUGCAGUACCUCGGCC (structured_RNA, 2-aminopurine at position 15 (loop A9), written as A) [hSLIV 2AP9]
8.70

Record request: pKd value, item GGACCUAUUGCAGUACCUGGUCC (structured_RNA) [hSLIV 6 bp stem]
8.70
